- Tested on: A. baumannii strain 5075 (AB5075)
- measurement_description: Clarithromycin potentiation against AB5075 (CLR MIC in presence of adjuvant)
- Assay type: cell-based, Acinetobacter baumannii
- measurement_setup: adjuvant at 20 μM, AB5075
observable: Fold Reduction of CLR MIC (fold)
Numbers only, in fold.

>  <compound>
Nc1nc(-c2ccc(NC(=O)Nc3ccc(-c4c[nH]c(N)n4)cc3)cc2)c[nH]1 [Compound 3]

>  <observable>
Fold Reduction of CLR MIC

>  <reported_value>
64

$$$$
>  <compound>
Nc1nc(-c2cccc(NC(=O)Nc3cc(F)cc(-c4c[nH]c(N)n4)c3)c2)c[nH]1 [Compound 9l]

>  <observable>
Fold Reduction of CLR MIC

>  <reported_value>
512

$$$$
>  <compound>
Nc1nc(-c2cccc(NC(=O)Nc3cccc(-c4c[nH]c(N)n4)c3)c2)c[nH]1 [Compound 5]

>  <observable>
Fold Reduction of CLR MIC

>  <reported_value>
512

$$$$
>  <compound>
Nc1nc(-c2ccc(NC(=O)Nc3ccc(-c4c[nH]c(N)n4)c(F)c3)cc2F)c[nH]1 [Compound 9a]

>  <observable>
Fold Reduction of CLR MIC

>  <reported_value>
512

$$$$

Please give Fold Reduction of CLR MIC for each item listed below.
1. Nc1nc(-c2ccc(NC(=O)Nc3cccc(-c4c[nH]c(N)n4)c3)cc2)c[nH]1 [Compound 4]
2. Nc1nc(-c2cccc(NC(=O)Nc3cccc(-c4c[nH]c(N)n4)c3F)c2F)c[nH]1 [Compound 9f]
3. Nc1nc(-c2cc(F)cc(NC(=O)Nc3cc(F)cc(-c4c[nH]c(N)n4)c3)c2)c[nH]1 [Compound 9g]

[32, 64, 512]

---

- System: A. baumannii strain 5075 (AB5075)
- measurement_description: Clarithromycin potentiation against AB5075 (CLR MIC in presence of adjuvant)
- Type: cell-based, Acinetobacter baumannii
- measurement_setup: adjuvant at 30 μM, AB5075
Response field label takes Y when Fold Reduction of CLR MIC is strictly below 8 fold and N in all other cases.

Check out these entries, answers already filled in.
>  <molecule>
Nc1nc(-c2ccc(NC(=O)Nc3ccc(-c4c[nH]c(N)n4)c(Cl)c3)cc2Cl)c[nH]1 [Compound 14b]

>  <class_assignment>
Y

$$$$
>  <molecule>
Nc1nc(-c2ccc(NC(=O)Nc3ccc(-c4c[nH]c(N)n4)cc3)cc2)c[nH]1 [Compound 3]

>  <class_assignment>
N

$$$$
>  <molecule>
COc1cc(-c2c[nH]c(N)n2)ccc1NC(=O)Nc1ccc(-c2c[nH]c(N)n2)cc1OC [Compound 9d]

>  <class_assignment>
Y

$$$$
>  <molecule>
Nc1nc(-c2cc(F)cc(NC(=O)Nc3ccc(-c4c[nH]c(N)n4)c(F)c3)c2)c[nH]1 [Compound 9j]

>  <class_assignment>
N

$$$$
>  <molecule>
Nc1nc(-c2cc(NC(=O)Nc3ccc(F)c(-c4c[nH]c(N)n4)c3)ccc2F)c[nH]1 [Compound 9b]

>  <class_assignment>
N

$$$$
>  <molecule>
Nc1nc(-c2ccc(NC(=O)Nc3ccc(-c4c[nH]c(N)n4)c(C(F)(F)F)c3)cc2C(F)(F)F)c[nH]1 [Compound 9c]

>  <class_assignment>
N

$$$$
>  <molecule>
Nc1nc(-c2cccc(NC(=O)Nc3cc(F)cc(-c4c[nH]c(N)n4)c3)c2)c[nH]1 [Compound 9l]

>  <class_assignment>
N

$$$$
>  <molecule>
Nc1nc(-c2ccc(F)c(NC(=O)Nc3cc(-c4c[nH]c(N)n4)ccc3F)c2)c[nH]1 [Compound 9e]

>  <class_assignment>
Y

$$$$
>  <molecule>
Nc1nc(-c2ccc(NC(=O)Nc3ccc(-c4c[nH]c(N)n4)c(F)c3)cc2F)c[nH]1 [Compound 9a]

>  <class_assignment>
N

$$$$
>  <molecule>
Nc1nc(-c2cccc(NC(=O)Nc3cccc(-c4c[nH]c(N)n4)c3)c2)c[nH]1 [Compound 5]

>  <class_assignment>
N

$$$$

Here's an entry: Nc1nc(-c2ccc(F)c(NC(=O)Nc3ccc(-c4c[nH]c(N)n4)c(F)c3)c2)c[nH]1 [Compound 9i] . Is its Fold Reduction of CLR MIC below 8 fold? Y

Here's an entry: Nc1nc(-c2ccc(NC(=O)Nc3cccc(-c4c[nH]c(N)n4)c3F)cc2F)c[nH]1 [Compound 9k] . Is its Fold Reduction of CLR MIC below 8 fold? N

---

- Test system: A. baumannii strain 5075 (AB5075)
- measurement_description: Clarithromycin potentiation against AB5075 (CLR MIC in presence of adjuvant)
- Type: cell-based, Acinetobacter baumannii
- measurement_setup: adjuvant at 7.5 μM, AB5075
observable: Fold Reduction of CLR MIC
The number alone won't do; follow it with the unit.

Before answering, review these 2 worked examples.
>  <chemical_string>
Nc1nc(-c2cc(NC(=O)Nc3ccc(F)c(-c4c[nH]c(N)n4)c3)ccc2F)c[nH]1

>  <test_target>
A. baumannii strain 5075 (AB5075)

>  <reported_value>
32 fold

$$$$
>  <chemical_string>
Nc1nc(-c2ccc(NC(=O)Nc3ccc(-c4c[nH]c(N)n4)c(F)c3)cc2F)c[nH]1

>  <test_target>
A. baumannii strain 5075 (AB5075)

>  <reported_value>
64 fold

$$$$

Please give Fold Reduction of CLR MIC for each item listed below.
1. Nc1nc(-c2cccc(NC(=O)Nc3cc(F)cc(-c4c[nH]c(N)n4)c3)c2)c[nH]1
2. Nc1nc(-c2cc(F)cc(NC(=O)Nc3cc(F)cc(-c4c[nH]c(N)n4)c3)c2)c[nH]1

["32 fold", "128 fold"]

---

- Test system: A. baumannii strain 5075 (AB5075)
- measurement_description: Clarithromycin potentiation against AB5075 (CLR MIC in presence of adjuvant)
- Format: cell-based, Acinetobacter baumannii
- measurement_setup: adjuvant at 7.5 μM, AB5075
observable: Clarithromycin (CLR) MIC (mg/L)
One number for each entry, in mg/L.

Before answering, review these 2 worked examples.
>  <chemical_string>
Nc1nc(-c2cccc(NC(=O)Nc3cc(F)cc(-c4c[nH]c(N)n4)c3)c2)c[nH]1

>  <test_target>
A. baumannii strain 5075 (AB5075)

>  <reported_value>
1

$$$$
>  <chemical_string>
Nc1nc(-c2cccc(NC(=O)Nc3cccc(-c4c[nH]c(N)n4)c3)c2)c[nH]1

>  <test_target>
A. baumannii strain 5075 (AB5075)

>  <reported_value>
1

$$$$

Which value of Clarithromycin (CLR) MIC has been reported for Nc1nc(-c2cc(NC(=O)Nc3ccc(F)c(-c4c[nH]c(N)n4)c3)ccc2F)c[nH]1 in the records? 1
